target: hCA II (Homo sapiens, UniProt P00918); construct: gene CA2; recombinant, obtained in-house; test: stopped-flow CO2 hydrase assay; type: biochemical; settings: read-out: KI (nM) ^1 / CAII
property: Ki (nM)

Sample records with Ki:
- NS(=O)(=O)c1ccc(C(=O)N2CCC(C(=O)N/N=C/c3ccccc3Cl)CC2)cc1: 6.51
- NS(=O)(=O)c1ccc(C(=O)N2CCC(C(=O)N/N=C/c3cccc(F)c3)CC2)cc1: 92.4
- NS(=O)(=O)c1ccc(C(=O)N2CCC(C(=O)N/N=C/c3ccc(C(F)(F)F)cc3)CC2)cc1: 37.4
- NS(=O)(=O)c1ccc(C(=O)N2CCC(C(=O)N/N=C/c3ccccc3)CC2)cc1: 4.41
- COc1ccc(/C=N/NC(=O)C2CCN(C(=O)c3ccc(S(N)(=O)=O)cc3)CC2)c(OC)c1: 160
- NS(=O)(=O)c1ccc(C(=O)N2CCC(C(=O)N/N=C/c3cccc(Cl)c3)CC2)cc1: 55.4

I. NS(=O)(=O)c1ccc(C(=O)N2CCC(C(=O)N/N=C/c3ccc(F)cc3)CC2)cc1
II. COc1cc(OC)c(OC)cc1/C=N/NC(=O)C1CCN(C(=O)c2ccc(S(N)(=O)=O)cc2)CC1
### Prompt Between I and II , which one shows the smaller Ki number? Use the label to indicate which entry you chose.
### Response II

###

molecular target: hCA I (Homo sapiens); construct: gene CA1; recombinant, obtained in-house; experiment: stopped-flow CO2 hydrase assay; assay type: biochemical; conditions: read-out: KI (nM) ^1 / CAI
Sequence (P00915 2-261): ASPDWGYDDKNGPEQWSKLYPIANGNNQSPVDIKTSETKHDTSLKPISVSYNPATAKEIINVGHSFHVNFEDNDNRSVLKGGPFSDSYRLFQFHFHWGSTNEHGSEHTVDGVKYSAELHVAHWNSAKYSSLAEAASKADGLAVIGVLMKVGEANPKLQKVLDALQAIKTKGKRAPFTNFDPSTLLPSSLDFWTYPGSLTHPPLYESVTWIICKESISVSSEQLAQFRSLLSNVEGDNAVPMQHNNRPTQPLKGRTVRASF
property: Ki (nM)

- NS(=O)(=O)c1ccc(C(=O)N2CCC(C(=O)N/N=C/c3cccc(F)c3)CC2)cc1: 392

I. COc1ccccc1/C=N/NC(=O)C1CCN(C(=O)c2ccc(S(N)(=O)=O)cc2)CC1
II. COc1ccc(/C=N/NC(=O)C2CCN(C(=O)c3ccc(S(N)(=O)=O)cc3)CC2)c(OC)c1
III. COc1ccc(/C=N/NC(=O)C2CCN(C(=O)c3ccc(S(N)(=O)=O)cc3)CC2)cc1
### Prompt Form: Sort by [Ki] Order [ ascending ] List each label, following the requested order.
### Response I, III, II

A. Cc1ccc(/C=N/NC(=O)C2CCN(C(=O)c3ccc(S(N)(=O)=O)cc3)CC2)cc1
B. COc1cc(/C=N/NC(=O)C2CCN(C(=O)c3ccc(S(N)(=O)=O)cc3)CC2)cc(OC)c1OC
C. NS(=O)(=O)c1ccc(C(=O)N2CCC(C(=O)N/N=C/c3cc(Cl)ccc3Cl)CC2)cc1
D. COc1ccc(OC)c(/C=N/NC(=O)C2CCN(C(=O)c3ccc(S(N)(=O)=O)cc3)CC2)c1
E. NS(=O)(=O)c1ccc(C(=O)N2CCC(C(=O)N/N=C/c3cccc([N+](=O)[O-])c3)CC2)cc1
### Prompt Rank by Ki (largest to smallest). List each label, following the requested order.
### Response A, E, C, B, D

###

molecular target: hCA I (Homo sapiens); construct: gene CA1; recombinant, obtained in-house; experiment: stopped-flow CO2 hydrase assay; format: biochemical; conditions: read-out: KI (nM) ^1 / CAI
property: Ki (nM)

• NS(=O)(=O)c1ccc(C(=O)N2CCC(C(=O)N/N=C/c3ccc(C(F)(F)F)cc3)CC2)cc1 = 1750

A. COc1ccc(/C=N/NC(=O)C2CCN(C(=O)c3ccc(S(N)(=O)=O)cc3)CC2)cc1OC
B. NS(=O)(=O)c1ccc(C(=O)N2CCC(C(=O)N/N=C/c3ccccc3)CC2)cc1
C. COc1ccc(/C=N/NC(=O)C2CCN(C(=O)c3ccc(S(N)(=O)=O)cc3)CC2)c(Br)c1OC
D. NS(=O)(=O)c1ccc(C(=O)N2CCC(C(=O)N/N=C/c3ccc4ccccc4c3)CC2)cc1
### Prompt Form: Sort by [Ki] Order [ ascending ] List each label, following the requested order.
### Response B, A, C, D
(B: 18.5 nM, A: 344 nM, C: 1540 nM, D: 4000 nM)

I. COc1c(/C=N/NC(=O)C2CCN(C(=O)c3ccc(S(N)(=O)=O)cc3)CC2)ccc2ccccc12
II. NS(=O)(=O)c1ccc(C(=O)N2CCC(C(=O)N/N=C/c3c(Cl)cccc3Cl)CC2)cc1
III. NS(=O)(=O)c1ccc(C(=O)N2CCC(C(=O)N/N=C/c3ccccc3Cl)CC2)cc1
### Prompt Rank by Ki (largest to smallest). List each label, following the requested order.
### Response III, I, II
